From: patent US10533010B2

Molecular target: recombinant Mcl-1 (residues 172-327) (Homo sapiens (Human), UniProt Q07820)
Sequence (Q07820 172-327): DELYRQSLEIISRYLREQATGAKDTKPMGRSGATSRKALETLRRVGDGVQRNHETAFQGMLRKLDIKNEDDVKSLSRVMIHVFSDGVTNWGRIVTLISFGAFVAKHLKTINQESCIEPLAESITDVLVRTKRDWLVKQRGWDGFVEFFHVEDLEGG
Experiment: Fluorescence polarization anisotropy competition assay (FITC-Bak or FITC-Bim BH3 peptide) with Mcl-1
Assay type: binding
Settings: Table 2; Ki bins given in nM; FITC-Bak or FITC-Bim peptide competition; Ki converted from IC50; read-out: Ki for Inhibition of Mcl-1
Record form. Attribute: Ki. Fill in for each entry.

What measured Ki goes with Cc1cc(OCCCc2c(C(=O)N3CCc4c(C(=O)O)cccc43)[nH]c3c(-c4c(C)nn(C)c4C)cccc23)cc(C)c1Cl [I-202] ? 51 to 100 nM

Recorded Ki of Cc1cc(OCCCc2c(C(=O)NCCC(=O)NS(=O)(=O)c3ccc(Oc4ccccc4)cc3)[nH]c3ccccc23)cc(C)c1Cl [I-17] , please. 101 to 299 nM

Which Ki is listed for Cc1cc(OCCCc2c(C(=O)N3CCN(c4ccc(C(=O)O)cc4)CC3)[nH]c3c(-c4c(C)nn(C)c4C)c(Cl)ccc23)cc(C)c1Cl [I-335] ? < 50 nM

Need Ki, item Cc1cc(OCCCc2c3n(c4c(-c5c(C)nn(C)c5C)c(Cl)ccc24)CCCN(c2cccc(C#N)c2)C3=O)cc(C)c1Cl [I-353] 51 to 100 nM

Look at this compound and give its reported Ki. Cc1cc(OCCCc2c(C(=O)N3CCN(c4ccc(C(=O)O)cc4)CC3)n(Cc3ccccn3)c3c(-c4c(C)nn(C)c4C)c(Cl)ccc23)cc(C)c1Cl [I-341] < 50 nM

Data request, read-out Ki, for Cc1cc(OCCCc2c(C(=O)Nc3ccnc(C(=O)O)c3)[nH]c3c(-c4c(C)nn(C)c4C)c(Cl)ccc23)cc(C)c1Cl [I-180] < 50 nM
